Target: PI3Kα (p110α/p85α) (Homo sapiens (Human), UniProt P42336)
Sequence (P42336 whole entry): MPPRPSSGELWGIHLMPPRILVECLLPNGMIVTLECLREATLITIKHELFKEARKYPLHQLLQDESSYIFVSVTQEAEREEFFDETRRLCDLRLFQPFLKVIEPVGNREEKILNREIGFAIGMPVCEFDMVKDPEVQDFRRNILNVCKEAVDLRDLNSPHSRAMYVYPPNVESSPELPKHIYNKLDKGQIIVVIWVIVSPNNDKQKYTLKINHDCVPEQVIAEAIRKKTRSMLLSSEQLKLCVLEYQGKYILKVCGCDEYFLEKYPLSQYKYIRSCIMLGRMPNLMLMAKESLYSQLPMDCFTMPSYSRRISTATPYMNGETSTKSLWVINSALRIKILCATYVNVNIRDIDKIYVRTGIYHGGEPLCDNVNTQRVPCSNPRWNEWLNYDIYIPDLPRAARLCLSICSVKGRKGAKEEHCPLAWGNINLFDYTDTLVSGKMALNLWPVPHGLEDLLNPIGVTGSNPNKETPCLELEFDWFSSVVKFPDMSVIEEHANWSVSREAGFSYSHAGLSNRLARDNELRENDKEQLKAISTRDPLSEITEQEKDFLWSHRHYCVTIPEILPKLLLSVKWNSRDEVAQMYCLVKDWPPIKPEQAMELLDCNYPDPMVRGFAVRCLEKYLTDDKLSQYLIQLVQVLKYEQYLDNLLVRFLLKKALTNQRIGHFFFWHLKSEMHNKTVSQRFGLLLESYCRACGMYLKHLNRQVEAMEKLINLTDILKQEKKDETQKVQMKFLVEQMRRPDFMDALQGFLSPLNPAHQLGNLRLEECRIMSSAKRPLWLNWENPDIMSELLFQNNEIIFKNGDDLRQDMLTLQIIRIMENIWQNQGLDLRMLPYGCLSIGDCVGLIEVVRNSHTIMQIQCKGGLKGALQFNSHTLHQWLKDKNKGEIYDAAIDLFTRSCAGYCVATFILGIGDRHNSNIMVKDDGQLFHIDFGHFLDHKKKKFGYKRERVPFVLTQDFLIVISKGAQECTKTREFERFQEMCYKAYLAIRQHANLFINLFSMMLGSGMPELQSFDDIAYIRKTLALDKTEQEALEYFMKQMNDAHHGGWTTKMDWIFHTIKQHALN
Sequence (P27986 whole entry partner): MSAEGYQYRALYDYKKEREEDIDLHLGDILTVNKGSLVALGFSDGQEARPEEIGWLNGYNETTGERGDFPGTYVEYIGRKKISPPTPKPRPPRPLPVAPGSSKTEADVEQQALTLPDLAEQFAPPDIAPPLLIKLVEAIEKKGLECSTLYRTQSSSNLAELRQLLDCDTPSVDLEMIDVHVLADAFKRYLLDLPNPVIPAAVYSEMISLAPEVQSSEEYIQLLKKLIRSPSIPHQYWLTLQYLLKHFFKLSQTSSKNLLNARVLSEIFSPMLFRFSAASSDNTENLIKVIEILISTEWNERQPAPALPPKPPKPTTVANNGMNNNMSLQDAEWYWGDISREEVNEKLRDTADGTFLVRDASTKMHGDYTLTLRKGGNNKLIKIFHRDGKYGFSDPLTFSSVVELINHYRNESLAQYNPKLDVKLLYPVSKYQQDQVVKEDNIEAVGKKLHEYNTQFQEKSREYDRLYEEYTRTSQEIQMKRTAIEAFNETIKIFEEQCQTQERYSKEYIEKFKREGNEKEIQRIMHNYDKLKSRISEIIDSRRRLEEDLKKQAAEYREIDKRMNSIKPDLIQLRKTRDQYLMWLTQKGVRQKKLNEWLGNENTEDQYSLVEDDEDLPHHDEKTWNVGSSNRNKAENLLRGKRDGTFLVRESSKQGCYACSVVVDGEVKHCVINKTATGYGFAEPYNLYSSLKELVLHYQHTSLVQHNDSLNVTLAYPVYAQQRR
Assay: PI3Kα enzymatic test by measuring the consumption of ATP
Format: biochemical
Procedure: Model 2: PI3Kα Enzymatic Test by Measuring the Consumption of ATP. The test uses a lucifeurerin/luciferase system to measure the concentration of ATP and its consumption during the enzymatic reaction. The test is performed in 96-well format (Corning/Costar 96 black flat-bottomed half-wells plate, ref. 3694) in a total volume of 30 μl. […] The IC50 values are determined by the preparation of successive threefold dilutions on at least a scale of 10 000.
Please provide measured PI3Ka IC50 for the entries that follow.

Q: # lookup: PI3Kα (p110α/p85α) (Homo sapiens (Human), UniProt P42336) PI3Ka IC50, key = C[C@@H](CO)OC(=O)Nc1ccc(-c2nc(N3CC4CCC(C3)O4)nc3c2C(=O)N(C)CC(C)(C)O3)cc1 [Example 238]
Result: >10 µM

Q: # lookup: PI3Kα (p110α/p85α) (Homo sapiens (Human), UniProt P42336) PI3Ka IC50, key = CCNC(=O)Nc1ccc(-c2nc(N3CC4CCC(C3)O4)nc3c2CN(CC)CC(C)(C)O3)cc1 [Example 113]
Result: >10 µM

Q: # lookup: PI3Kα (p110α/p85α) (Homo sapiens (Human), UniProt P42336) PI3Ka IC50, key = CCN1CC(C)(C)Oc2nc(N3CC4CCC(C3)O4)nc(-c3ccc(NC(=O)Nc4cncc(OC)n4)cc3)c2C1=O [Example 28]
Result: >10 µM

Q: # lookup: PI3Kα (p110α/p85α) (Homo sapiens (Human), UniProt P42336) PI3Ka IC50, key = C[C@@H]1COCCN1c1ccc(NC(=O)Nc2ccc(-c3nc(N4CC5CCC(C4)O5)nc4c3C(=O)N(C)CC(C)(C)O4)cc2F)cn1 [Example 87]
Result: >10 µM

Q: # lookup: PI3Kα (p110α/p85α) (Homo sapiens (Human), UniProt P42336) PI3Ka IC50, key = CCN1CC(C)(C)Oc2nc(N3CC4CCC(C3)O4)nc(-c3ccc(NC(=O)Nc4ccc(N5CCOCC5)cn4)cc3)c2C1=O [Example 250]
Result: >10 µM

Q: # lookup: PI3Kα (p110α/p85α) (Homo sapiens (Human), UniProt P42336) PI3Ka IC50, key = CCN1CC(C)(C)Oc2nc(N3CC4CCC(C3)O4)nc(-c3ccc(NC(=O)Nc4ccccn4)cc3)c2C1=O [Example 33]
Result: 9.24 µM

Q: # lookup: PI3Kα (p110α/p85α) (Homo sapiens (Human), UniProt P42336) PI3Ka IC50, key = CCN1CC(C)(C)Oc2nc(N3CC4CCC(C3)O4)nc(-c3ccc(Nc4nc5ccccc5[nH]4)cc3)c2C1=O [Example 118]
Result: 5.04 µM
